# credit: patent US20220056104A1

Examples of binders with documented Rel EC50 follow.
Target: T1, DcR3 (UniProt O95407 30-300, limits assumed)
T1 construct: the construct is not described; also called decoy receptor DcR3; TNFRSF6B
T1 sequence (looked up): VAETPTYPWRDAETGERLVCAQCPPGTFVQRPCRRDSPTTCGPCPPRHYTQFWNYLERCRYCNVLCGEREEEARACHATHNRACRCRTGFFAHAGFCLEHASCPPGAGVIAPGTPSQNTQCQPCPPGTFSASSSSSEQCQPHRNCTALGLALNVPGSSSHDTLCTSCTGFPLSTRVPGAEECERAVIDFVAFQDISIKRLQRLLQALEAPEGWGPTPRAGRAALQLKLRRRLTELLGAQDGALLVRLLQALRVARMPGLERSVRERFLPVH
Test: ELISA, DcR3

| binder | Rel EC50 |
| --- | --- |
| TL1W135 (His-TEV-TL1A K240A) (ligand, also called TL1W135 (K240A)) HHHHHHENLYFQGLKGQEFAPSHQQVYAPLRADGDKPRAHLTVVRQTPTQHFKNQFPALHWEHELGLAFTKNRMNYTNKFLLIPESGDYFIYSQVTFRGMTSECSEIRQAGRPNKPDSITVVITKVTDSYPEPTQLLMGTKSVCEVGSNWFQPIYLGAMFSLQEGDKLMVNVSDISLVDYTAEDKTFFGAFLL | 1.9 ratio (head: nM) |

Consider now this further binder.
## Task Rel EC50 lookup needed for TL1W120 (His-TEV-TL1A S206K) (ligand, also called TL1W120 (S206K)) HHHHHHENLYFQGLKGQEFAPSHQQVYAPLRADGDKPRAHLTVVRQTPTQHFKNQFPALHWEHELGLAFTKNRMNYTNKFLLIPESGDYFIYSQVTFRGMTSECSEIRQAGRPNKPDSITVVITKVTDSYPEPTQLLMGTKSVCEVGKNWFQPIYLGAMFSLQEGDKLMVNVSDISLVDYTKEDKTFFGAFLL , thanks.
## Result 19.8 ratio (head: nM)
